# ASSAY NAME: Beagle PK (pharmacokinetics)
# Format: in vivo, beagle dogs
# STATED CONDITIONS: whole blood; Beagle dog, PO 3 mg/kg, 7 hr; read-out: Blood drug concentration
READOUT: concentration at 7 h (ng/mL)
Give the value, in units of ng/mL, as a plain number.

COMPOUND: O=C(C1CCN(c2cc(-c3cc(OCCCO)ccc3F)ccn2)CC1)N1N=CCC1c1cc(F)cc(F)c1 (racemic)
concentration at 7 h / ng/mL: 82.4

Okay, next one:
Query: Which measured concentration at 7 h value corresponds to CC(C)(O)COc1ccc(F)c(-c2ccnc(N3CCC(C(=O)N4N=CC[C@H]4c4cc(F)cc(F)c4)CC3)c2)c1 (racemic) ?
Result: 406
